- TARGET_SYSTEM: T1, HLA-A*0301 (human)
- T1 construct: also called HLA-A3
- ASSAY_DETAILS: inhibition of 125I-labelled probe peptide binding to purified HLA-A*0301, gel filtration; ratio to standard peptide 941.12 ([..], 11 nM)
Classify as follows. Reported relative binding ratio (IC50 of standard peptide / IC50 of test peptide) greater than or equal to 0.003: 1 (yes). Reported relative binding ratio (IC50 of standard peptide / IC50 of test peptide) below: 0 (no).

INSERT INTO assay_data (binder, discrete_label) VALUES
  ('GLPREYVNAR [HER2/neu peptide, position 549, 10 amino acids]', '0 (no)'),
  ('FSPAFDNLY [HER2/neu peptide, position 1213, 9 amino acids]', '0 (no)'),
  ('GVVFGILIK [HER2/neu peptide, position 668, 9 amino acids]', '1 (yes)'),
  ('GAGGMVHHR [HER2/neu peptide, position 1038, 9 amino acids]', '0 (no)'),
  ('GTQRCEKCSK [HER2/neu peptide, position 327, 10 amino acids]', '1 (yes)'),
  ('GILIKRRQQK [HER2/neu peptide, position 672, 10 amino acids]', '1 (yes)'),
  ('GASCVTACPY [HER2/neu peptide, position 292, 10 amino acids]', '0 (no)'),
  ('GSGAFGTVY [HER2/neu peptide, position 727, 9 amino acids]', '0 (no)');
